# Tgt: human uPA (Homo sapiens, UniProt P00749)
# Construct: purchased
# Assay Protocol: in vitro uPA chromogenic substrate assay (glutaryl-glycyl-arginyl-p-nitroanilide, absorbance 405nm)
# Type: biochemical
# Condition Set: read-out: % INHIBITION OF uPA ACTIVITY 100 mM INHIBITOR
Measured Metric: inhibition at 100 µM (%)

See these solved cases before continuing.
* NC(N)=NC(=O)c1nc(Br)c(N)nc1N | 69.9
* NC(N)=NC(=O)c1nc(Cl)c(Cl)nc1N | 20.7
* NC(N)=NC(=O)c1nccnc1N | 11.1
* CCN(c1nc(N)c(C(=O)N=C(N)N)nc1Cl)C(C)C | 56
* NC(N)=NC(=O)c1nc(Br)cnc1N | 7.7
* NC(=Nc1ccccc1)NC(=O)c1nc(Cl)c(N)nc1N | 5.5
* NC(N)=NC(=O)c1nc(Cl)c(N2CCCCCC2)nc1N | 77
* CN(C)c1nc(N)c(C(=O)N=C(N)N)nc1Cl | 48.3
* CN(C)c1nc(N)c(C(=O)N=C(N)N)nc1I | 73.1

A: CN(CC(=O)N=C(N)N)c1nc(N)c(C(=O)N=C(N)N)nc1Cl
B: NC(N)=NNC(=O)c1nc(Cl)c(N)nc1N
Problem: I'm curious whether A or B has the smaller inhibition at 100 µM number. Which is it? Kindly state the label of the option you pick.
Result: B
(B: 7.3%, A: 43%)

---

# Tgt: human uPA (Homo sapiens, UniProt P00749)
# Construct: purchased
# Assay Protocol: in vitro uPA chromogenic substrate assay (glutaryl-glycyl-arginyl-p-nitroanilide, absorbance 405nm)
# Type: biochemical
# Condition Set: read-out: % INHIBITION OF uPA ACTIVITY 20 mM INHIBITOR
Measured Metric: inhibition at 20 µM (%)

See these solved cases before continuing.
* CCN(c1nc(N)c(C(=O)N=C(N)N)nc1Cl)C(C)C | 28.3
* NC(N)=NNC(=O)c1nc(Cl)c(N)nc1N | 1.9
* NC(N)=NC(=O)c1nc(F)c(N)nc1N | 7.1
* CN(C)c1nc(N)c(C(=O)N=C(N)N)nc1I | 40.3
* NC(N)=NC(=O)c1nc(Cl)c(N2CCCCCC2)nc1N | 51.1

1: CN(C)c1nc(N)c(C(=O)N=C(N)N)nc1Cl
2: NC(N)=NC(=O)c1nc(Br)cnc1N
Problem: When 1 and 2 are compared, which has the higher number for inhibition at 20 µM? Kindly state the label of the option you pick.
Result: 1

---

# Tgt: human uPA (Homo sapiens)
# Construct: purchased
# Assay Protocol: in vitro uPA chromogenic substrate assay (glutaryl-glycyl-arginyl-p-nitroanilide, absorbance 405nm)
# Assay type: biochemical
# Condition Set: read-out: % INHIBITION OF uPA ACTIVITY 20 mM INHIBITOR
Measured Metric: inhibition at 20 µM (%)

A: NC(N)=NC(=O)c1nccnc1N
B: CN(CC(=O)N=C(N)N)c1nc(N)c(C(=O)N=C(N)N)nc1Cl
C: CC(C)CN(C)c1nc(N)c(C(=O)N=C(N)N)nc1Cl
D: NC(=NCc1ccccc1)NC(=O)c1nc(Cl)c(N)nc1N
Problem: Quick one: which order do the items above go in by inhibition at 20 µM, smallest to largest? Give the order by naming the labels one after another as requested.
Result: D, A, C, B
(D: 1.2%, A: 2.1%, C: 18.7%, B: 29.1%)
